# System: platelet aggregation (collagen as inducer)
# assay overview: Inhibition of collagen-induced platelet aggregation in platelet rich plasma
# Type: cell-based
# recorded conditions: Oryctolagus cuniculus, rabbit PRP, 37° C., collagen 2.5 μg/ml, read-out: ID50 Collagen
pIC50: −log10 of the molar value.
Rule: pIC50 under 6 gives not satisfied, otherwise satisfied.

{"molecule": "CC1NC(=O)NN=C1c1ccc2c(c1)CCCN2C (stereo not shown)", "class name": "not satisfied"}

Here is another molecule to look at.
Does the molecule CC1NC(=O)NN=C1c1ccc2c(ccc(=O)n2C)c1 (stereo not shown) have recorded pIC50 that is 6 or more?
satisfied

###

Can you tell me log10(IC50) for the items I'm about to list?
# System: platelet aggregation (collagen as inducer)
# assay overview: Inhibition of collagen-induced platelet aggregation in platelet rich plasma
# Type: cell-based
# recorded conditions: Oryctolagus cuniculus, rabbit PRP, 37° C., collagen 2.5 μg/ml, read-out: ID50 Collagen
Kindly note that the scale is log10 and the underlying IC50 is in nM.

Answered examples (3):
{"compound": "CC(=O)N1CCCc2cc(C3=NNC(=O)NC3C)ccc21 (centres unmarked)", "log10(IC50)": 2.73}
{"compound": "CC1NC(=O)NN=C1c1ccc2c(c1)CCCN2C(=O)C1CC1 (centres unmarked)", "log10(IC50)": 1.53}
{"compound": "CN1C(=O)CCc2cc(C3=NNC(=O)NC3)ccc21", "log10(IC50)": 2.38}

Hi there! I need log10(IC50) for each item below, if you can.
1. CN1C(=O)Cc2cc(C3=NNC(=O)NC3)ccc21
2. CC1NC(=O)NN=C1c1ccc2c(c1)CCCN2C(=O)C1CCC1 (centres unmarked)
3. CC1NC(=O)NN=C1c1ccc2c(c1)CCCN2 (centres unmarked)
4. CC(=O)N1CCCc2ccc(C3=NNC(=O)NC3C)cc21 (centres unmarked)

1: 3.43; 2: 1.91; 3: 2.67; 4: 3.28

# input compound: CC1NC(=O)NN=C1c1ccc2c(c1)NCCC2 (centres unmarked) ; wanted: its log10(IC50)
4.34
